# systemName: Cytochrome P450 3A4 (Homo sapiens) (UniProt P08684)
# Sequence (P08684 whole entry, looked up): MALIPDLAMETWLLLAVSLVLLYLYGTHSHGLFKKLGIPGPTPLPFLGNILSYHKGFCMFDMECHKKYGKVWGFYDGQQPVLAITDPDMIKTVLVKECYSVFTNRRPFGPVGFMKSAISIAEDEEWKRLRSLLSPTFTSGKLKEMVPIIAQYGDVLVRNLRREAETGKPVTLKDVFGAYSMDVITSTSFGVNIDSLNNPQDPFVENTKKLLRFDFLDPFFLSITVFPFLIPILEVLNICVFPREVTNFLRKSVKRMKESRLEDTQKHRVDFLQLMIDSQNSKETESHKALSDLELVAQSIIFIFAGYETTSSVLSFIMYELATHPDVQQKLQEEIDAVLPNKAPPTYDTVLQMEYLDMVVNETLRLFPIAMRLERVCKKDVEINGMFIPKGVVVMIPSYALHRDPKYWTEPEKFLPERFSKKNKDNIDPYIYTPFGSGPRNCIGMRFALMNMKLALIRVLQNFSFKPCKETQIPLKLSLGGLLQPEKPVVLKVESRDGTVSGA
# experimentalProtocol: Cytochrome P450 Family 3 Subfamily A Member 4 (CYP3A4) small molecule antagonists: luciferase reporter qHTS assay (AID 1671201); note: % is set by controls: 0 for no effect and ±100 for the full control effect; nearly all actives have a fitted effect of over 50% in size
# measurementConditions: P450-Glo CYP3A4 enzyme, luciferin luminescence, 1 h; series mostly up to 115 µM
Records with an inconclusive call do not appear. Activity calls are given as the source filed them. Calls come from the whole dose curve; as a rule, active = well fitted inhibition curve with a large enough effect in the repeat runs; inconclusive = weak or mixed curves; inactive = no such curve, though single readings can be large or run the other way.
Each entry below carries its reported activity change, negative = inhibition.

Solved cases (4 shown):
CCCCCCCCCCCCCCCC(=O)OC
2.42% [at 23.6 µM] (inactive)
CN(C)CCCN(C)C
12.7% [at 10.5 µM] (inactive)
C[C@@H]1CC[C@@]2(OC1)O[C@H]1C[C@H]3[C@@H]4CC[C@H]5C[C@@H](O)CC[C@]5(C)[C@H]4CC(=O)[C@]3(C)[C@H]1[C@@H]2C
29.8% [at 10.5 µM] (inactive)
C[C@@H]1NC(=O)[C@@H](N)CNC(=O)[C@H](C2CCNC(N)=N2)NC(=O)/C(=C/NC(N)=O)NC(=O)[C@H](CNC(=O)C[C@@H](N)CCCN)NC1=O (some centres not stated)
1.92% [at 0.435 µM] (inactive)

Challenge: GET /values?readout=activity change, negative = inhibition&item= "CCCCCCCCCCCCCCCCN(C)C"
Response given: -0.256% [at 10.5 µM] (inactive)

Challenge: # lookup: activity change, negative = inhibition of "NC[C@H]1O[C@H](O[C@H]2[C@H](O)[C@@H](O[C@H]3O[C@H](CO)[C@@H](O)[C@H](N)[C@H]3O)[C@H](N)C[C@@H]2N)[C@H](N)[C@@H](O)[C@@H]1O"
Response given: 6.04% [at 23.6 µM] (inactive)

Challenge: // query activity change, negative = inhibition value for entry "c1cc2ccc3ccc4ccc5cccc6c(c1)c2c3c4c56"
Response given: -22.2% [at 4.07 µM] (inactive)

These data points were gathered from PubChem BioAssay (Tox21).
